System: PCSK9 mRNA
Assay type: cell-based, human
Settings: Hep3B cells, 100 nM, relative to untreated control cells; 0 = no reduction observed
Method: When cells reached appropriate confluency, they were treated with oligonucleotide using LIPOFECTIN® as described. […] Cells were treated and data were obtained in duplicate or triplicate. […] Short antisense compounds targeted to a PCSK9 nucleic acid were tested for their effects on PCSK9 mRNA in vitro. […] After the treatment period, RNA was isolated from the cells and PCSK9 mRNA levels were measured by quantitative real-time PCR, as described herein. […]
Strand notation (5' to 3'): a small letter for the sugar, then the base; units joined by * are phosphorothioate-linked, units joined directly phosphodiester-linked; [ ] holds rarer units or linkages, { } end groups; capitals alone tell only the bases. e = 2'-O-(2-methoxyethyl) (MOE); [5mC] = 5-methylcytosine; d = 2'-deoxy (DNA)
REPORTED PROPERTY: % Inhib (PCSK9 mRNA) (%)
Express your answer in %, writing the number without its unit.

Req: Complete the entry with % Inhib (PCSK9 mRNA) for 400371 (antisense eA*eG*dT*dT*dA*d[5mC]*dA*dA*dA*dA*dG*d[5mC]*eA*eA) [compound 400371]
Resp: 0

Req: Complete the entry with % Inhib (PCSK9 mRNA) for 400366 (antisense eG*e[5mC]*dT*d[5mC]*d[5mC]*dG*dG*d[5mC]*dA*dG*d[5mC]*dA*eG*eA) [compound 400366]
Resp: 15

Req: Complete the entry with % Inhib (PCSK9 mRNA) for 400359 (antisense e[5mC]*eA*dT*dG*dG*d[5mC]*dA*dG*d[5mC]*dA*dG*dG*eA*eA) [compound 400359]
Resp: 0

Req: Complete the entry with % Inhib (PCSK9 mRNA) for 400329 (e[5mC]*eA*d[5mC]*dG*dT*dG*dG*dG*d[5mC]*dA*dG*d[5mC]*eA*eG; antisense) [compound 400329]
Resp: 14

Req: Complete the entry with % Inhib (PCSK9 mRNA) for 400304 (antisense eG*eA*dG*dA*dT*dA*d[5mC]*dA*d[5mC]*d[5mC]*dT*d[5mC]*e[5mC]*eA) [compound 400304]
Resp: 11

Req: Complete the entry with % Inhib (PCSK9 mRNA) for 400318 (e[5mC]*e[5mC]*dT*dA*dT*dG*dA*dG*dG*dG*dT*dG*e[5mC]*e[5mC]; antisense) [compound 400318]
Resp: 26

Every entry's value here was drawn from patent US8188059B2.
